Data provenance: patent US11673888B2

# target-under-test: ATX (human His-tagged) (Homo sapiens (Human), UniProt Q13822)
measure-name: IC50 (nM)
Reply with just the number (in nM).

Q: Given the molecule O=C(c1cnc(OCC2CCOCC2)c(C2CC2)c1)N1CCc2nc(C(=O)N3CCc4[nH]nnc4C3)sc2C1 [Example 1.03] , what is its reported IC50?
A: 5
